logD: recorded values
Assay: Partition coefficient (logD), n-octanol/PBS pH 7.4
Type: physicochemical
Details: 68Ga-labeled compounds, mean ± SD, read-out: Partition Coefficient [logDoctanol/PBS]
Non-standard residues stand in square brackets, D forms with d. Residues, ends and D or L forms follow the SMILES beside them. *: point of attachment. DOTA = O=C(O)CN1CCN(CC(=O)O)CCN(CC(=O)*)CCN(CC(=O)O)CC1; EuK = O=C(O)CC[C@H](NC(=O)N[C@@H](CCCCN*)C(=O)O)C(=O)O; 2Nal = N[C@@H](Cc1ccc2ccccc2c1)C(=O)O; Trx = NC[C@H]1CC[C@H](C(=O)O)CC1
Would you mind answering with just the numeric figure?

COMPOUND	ASSAY ENDPOINT	MEAS VALUE
O=C(O)CC[C@H](NC(=O)N[C@@H](CCCCNC(=O)[C@H](Cc1ccc2ccccc2c1)NC(=O)[C@H]1CC[C@H](CNC(=O)[C@H](Cc2c[nH]cn2)NC(=O)[C@H](CCC(=O)O)NC(=O)[C@H](Cc2c[nH]cn2)NC(=O)[C@H](CCC(=O)O)NC(=O)[C@H](Cc2c[nH]cn2)NC(=O)[C@H](CCC(=O)O)NC(=O)[C@H](Cc2c[nH]cn2)NC(=O)[C@H](CCC(=O)O)NC(=O)CN2CCN(CC(=O)O)CCN(CC(=O)O)CCN(CC(=O)O)CC2)CC1)C(=O)O)C(=O)O [PS5, EuK-NaI-ChX-(HE)4-DOTA] ({DOTA}-EHEHEHEH[Trx][2Nal]-EuK)	logD	-3.74

From here, focus on the item given below.
**Q:** Return reported logD. Input compound: O=C(O)CC[C@H](NC(=O)N[C@@H](CCCCNC(=O)[C@H](Cc1ccc2ccccc2c1)NC(=O)[C@H](CCC(=O)O)NC(=O)[C@H](CCC(=O)O)NC(=O)[C@H](CCC(=O)O)NC(=O)[C@H]1CC[C@H](CNC(=O)CN2CCN(CC(=O)O)CCN(CC(=O)O)CCN(CC(=O)O)CC2)CC1)C(=O)O)C(=O)O [PS7, EuK-NaI-E3-ChX-DOTA] ({DOTA-Trx}-EEE[2Nal]-EuK)
**A:** -3.3

###

Test: Static small-animal PET imaging 1 h and 2 h p.i.
Conditions: male, BALB/c nu/nu, mouse, kidneys, iv, 500 pmol, total radioactivity, SUV kidneys, 68Ga-labeled, 0.5 nmol i.v.; static PET 2 h p.i.; n = 1, SD from VOIs
Non-standard residues stand in square brackets, D forms with d. Residues, ends and D or L forms follow the SMILES beside them. *: point of attachment. DOTA = O=C(O)CN1CCN(CC(=O)O)CCN(CC(=O)*)CCN(CC(=O)O)CC1; EuK = O=C(O)CC[C@H](NC(=O)N[C@@H](CCCCN*)C(=O)O)C(=O)O; 2Nal = N[C@@H](Cc1ccc2ccccc2c1)C(=O)O; Trx = NC[C@H]1CC[C@H](C(=O)O)CC1
ASSAY ENDPOINT: SUV at 2 h (SUV)
Numbers only here, please. The scale is SUV.

**Q:** Return reported SUV at 2 h. Input molecule: O=C(O)CC[C@H](NC(=O)N[C@@H](CCCCNC(=O)[C@H](Cc1ccc2ccccc2c1)NC(=O)[C@H]1CC[C@H](CNC(=O)[C@H](CCC(=O)O)NC(=O)[C@H](Cc2c[nH]cn2)NC(=O)[C@H](CCC(=O)O)NC(=O)[C@H](Cc2c[nH]cn2)NC(=O)[C@H](CCC(=O)O)NC(=O)[C@H](Cc2c[nH]cn2)NC(=O)CN2CCN(CC(=O)O)CCN(CC(=O)O)CCN(CC(=O)O)CC2)CC1)C(=O)O)C(=O)O [[^68Ga]Ga-PS4, metal not drawn] ({DOTA}-HEHEHE[Trx][2Nal]-EuK)
**A:** 2.77

###

Assay: in vivo
Conditions: male, BALB/c nu/nu, mouse, iv, 500 pmol, total radioactivity, SUV tumor
Non-standard residues stand in square brackets, D forms with d. Residues, ends and D or L forms follow the SMILES beside them. *: point of attachment. DOTA = O=C(O)CN1CCN(CC(=O)O)CCN(CC(=O)*)CCN(CC(=O)O)CC1; EuK = O=C(O)CC[C@H](NC(=O)N[C@@H](CCCCN*)C(=O)O)C(=O)O; 2Nal = N[C@@H](Cc1ccc2ccccc2c1)C(=O)O; Trx = NC[C@H]1CC[C@H](C(=O)O)CC1
SUV at 1 h: recorded values
Numbers only here, please. The scale is SUV.

MOLECULE	UNIT LABEL	MEAS VALUE
O=C(O)CC[C@H](NC(=O)N[C@@H](CCCCNC(=O)[C@H](Cc1ccc2ccccc2c1)NC(=O)[C@H](CCC(=O)O)NC(=O)[C@H](CCC(=O)O)NC(=O)[C@H](CCC(=O)O)NC(=O)[C@H]1CC[C@H](CNC(=O)CN2CCN(CC(=O)O)CCN(CC(=O)O)CCN(CC(=O)O)CC2)CC1)C(=O)O)C(=O)O [PS7, EuK-NaI-E3-ChX-DOTA] ({DOTA-Trx}-EEE[2Nal]-EuK)	SUV	0.71
O=C(O)CC[C@H](NC(=O)N[C@@H](CCCCNC(=O)[C@H](Cc1ccc2ccccc2c1)NC(=O)[C@H](Cc1c[nH]cn1)NC(=O)[C@H](CCC(=O)O)NC(=O)[C@H](Cc1c[nH]cn1)NC(=O)[C@H](CCC(=O)O)NC(=O)[C@H](Cc1c[nH]cn1)NC(=O)[C@H](CCC(=O)O)NC(=O)[C@H]1CC[C@H](CNC(=O)CN2CCN(CC(=O)O)CCN(CC(=O)O)CCN(CC(=O)O)CC2)CC1)C(=O)O)C(=O)O [PS2, EuK-NaI-(HE)3-ChX-DOTA] ({DOTA-Trx}-EHEHEH[2Nal]-EuK)	SUV	0.78

From here, focus on the item given below.
**Q:** Return reported SUV at 1 h. Input molecule: O=C(O)CC[C@H](NC(=O)N[C@@H](CCCCNC(=O)[C@H](Cc1ccc2ccccc2c1)NC(=O)[C@H]1CC[C@H](CNC(=O)[C@H](CCC(=O)O)NC(=O)[C@H](Cc2c[nH]cn2)NC(=O)[C@H](CCC(=O)O)NC(=O)[C@H](Cc2c[nH]cn2)NC(=O)[C@H](CCC(=O)O)NC(=O)[C@H](Cc2c[nH]cn2)NC(=O)CN2CCN(CC(=O)O)CCN(CC(=O)O)CCN(CC(=O)O)CC2)CC1)C(=O)O)C(=O)O [PS4, EuK-NaI-ChX-(EH)3-DOTA] ({DOTA}-HEHEHE[Trx][2Nal]-EuK)
**A:** 1.15

###

Assay: Static small-animal PET imaging 1 h and 2 h p.i.
Details: male, BALB/c nu/nu, mouse, kidneys, iv, 500 pmol, total radioactivity, SUV kidneys, 68Ga-labeled, 0.5 nmol i.v.; static PET 1 h p.i.; n = 1, SD from VOIs
Non-standard residues stand in square brackets, D forms with d. Residues, ends and D or L forms follow the SMILES beside them. *: point of attachment. DOTA = O=C(O)CN1CCN(CC(=O)O)CCN(CC(=O)*)CCN(CC(=O)O)CC1; EuK = O=C(O)CC[C@H](NC(=O)N[C@@H](CCCCN*)C(=O)O)C(=O)O; 2Nal = N[C@@H](Cc1ccc2ccccc2c1)C(=O)O; Trx = NC[C@H]1CC[C@H](C(=O)O)CC1
ASSAY ENDPOINT: SUV at 1 h (SUV)
Numbers only here, please. The scale is SUV.

**Q:** Return reported SUV at 1 h. Input molecule: O=C(O)CC[C@H](NC(=O)N[C@@H](CCCCNC(=O)[C@H](Cc1ccc2ccccc2c1)NC(=O)[C@H]1CC[C@H](CNC(=O)[C@H](CCC(=O)O)NC(=O)[C@H](Cc2c[nH]cn2)NC(=O)[C@H](CCC(=O)O)NC(=O)[C@H](Cc2c[nH]cn2)NC(=O)[C@H](CCC(=O)O)NC(=O)[C@H](Cc2c[nH]cn2)NC(=O)CN2CCN(CC(=O)O)CCN(CC(=O)O)CCN(CC(=O)O)CC2)CC1)C(=O)O)C(=O)O [[^68Ga]Ga-PS4, metal not drawn] ({DOTA}-HEHEHE[Trx][2Nal]-EuK)
**A:** 3.81

###

Experiment: Static small-animal PET imaging 1 h and 2 h p.i.
Details: male, BALB/c nu/nu, mouse, tumor (LNCaP xenograft), iv, 500 pmol, total radioactivity, SUV tumor, 68Ga-labeled, 0.5 nmol i.v.; static PET 1 h p.i.; n = 1, SD from VOIs
Non-standard residues stand in square brackets, D forms with d. Residues, ends and D or L forms follow the SMILES beside them. *: point of attachment. DOTA = O=C(O)CN1CCN(CC(=O)O)CCN(CC(=O)*)CCN(CC(=O)O)CC1; EuK = O=C(O)CC[C@H](NC(=O)N[C@@H](CCCCN*)C(=O)O)C(=O)O; 2Nal = N[C@@H](Cc1ccc2ccccc2c1)C(=O)O; Trx = NC[C@H]1CC[C@H](C(=O)O)CC1
ASSAY ENDPOINT: SUV at 1 h (SUV)
Numbers only here, please. The scale is SUV.

MOLECULE	UNIT LABEL	SUV at 1 h
O=C(O)CC[C@H](NC(=O)N[C@@H](CCCCNC(=O)[C@H](Cc1c[nH]cn1)NC(=O)[C@H](CCC(=O)O)NC(=O)[C@H](Cc1c[nH]cn1)NC(=O)[C@H](CCC(=O)O)NC(=O)[C@H](Cc1c[nH]cn1)NC(=O)[C@H](CCC(=O)O)NC(=O)[C@H](Cc1ccc2ccccc2c1)NC(=O)[C@H]1CC[C@H](CNC(=O)CN2CCN(CC(=O)O)CCN(CC(=O)O)CCN(CC(=O)O)CC2)CC1)C(=O)O)C(=O)O [[^68Ga]Ga-PS1, metal not drawn] ({DOTA-Trx}-[2Nal]EHEHEH-EuK)	SUV	0.43

From here, focus on the item given below.
**Q:** Return reported SUV at 1 h. Input molecule: O=C(O)CC[C@H](NC(=O)N[C@@H](CCCCNC(=O)[C@H](Cc1ccc2ccccc2c1)NC(=O)[C@H]1CC[C@H](CNC(=O)[C@H](CCC(=O)O)NC(=O)[C@H](Cc2c[nH]cn2)NC(=O)[C@H](CCC(=O)O)NC(=O)[C@H](Cc2c[nH]cn2)NC(=O)[C@H](CCC(=O)O)NC(=O)[C@H](Cc2c[nH]cn2)NC(=O)CN2CCN(CC(=O)O)CCN(CC(=O)O)CCN(CC(=O)O)CC2)CC1)C(=O)O)C(=O)O [[^68Ga]Ga-PS4, metal not drawn] ({DOTA}-HEHEHE[Trx][2Nal]-EuK)
**A:** 1.15
